# System: SN12C renal
# assay info: NCI tumour cell line growth inhibition, 48 h
measurement type: TGI

CC1=NC(C)(C)N(O)C1(C)C ... > 100 µM
COc1ccc(-c2cc(-c3cc(Cl)ccc3Cl)nc3nc(=S)[nH]c(N)c23)cc1 ... 65.7 µM

# ---- query compound ----
**Q:** Kindly indicate its recorded TGI. Item: Clc1cccc(C2ON=C(c3ccccc3)N2C23CC4CC(CC(C4)C2)C3)c1Cl (stereo not drawn)
**A:** > 10 µM

----------
# Test system: NCI/ADR-RES ovarian
# assay info: NCI tumour cell line growth inhibition, 48 h
measurement type: GI50

The following compounds have reported results that may help.
Cc1ncc(NC(=O)c2ccc(CN3CCN(C)CC3)c(C(F)(F)F)c2)cc1Nc1nccc(-c2cccnc2)n1 ... 17.8 µM
CC(=O)O[C@H]1C(=O)[C@@]2(C)[C@H]([C@H](OC(=O)c3ccccc3)[C@]3([O-])C[C@H](OC(=O)[C@H]([O-])[C@@H](NC(=O)c4ccccc4)c4ccccc4)C(C)=C1C3(C)C)[C@]1(OC(C)=O)CO[C@@H]1C[C@@H]2[O-].[Fe+3] ... 19.2 µM
CC(=O)[CH-]C(C)=O.CC(=O)[CH-]C(C)=O.N=CC=N.[Sn+2] ... 3.15 µM

**Q:** Kindly indicate its recorded GI50. Item: `O=C(Nc1cc(-c2ccccc2)[nH]n1)c1ccc(Cl)cc1`
**A:** > 100 µM

----------
# Test system: OVCAR-8 ovarian
# assay info: NCI tumour cell line growth inhibition, 48 h
measurement type: TGI

CC/C=C\C/C=C\C1CC(=O)NCCCNCCCCN1 (centres undefined) ... > 100 µM
Cc1noc(C)c1-c1ccc2[nH]c(=O)n3c2c1OC[C@@H]3c1ccccn1 ... > 100 µM
CCOC(=O)c1[nH]c2nc(SC)nc(NC)c2c1N ... > 100 µM

**Q:** Kindly indicate its recorded TGI. Item: `Clc1ccc(CNc2nc3ccccc3nc2-c2cccs2)c(Cl)c1`
**A:** > 100 µM

----------
# System: CAKI-1 renal
# assay info: NCI tumour cell line growth inhibition, 48 h
TGI reference
Quick reminder: number only, in µM, skip the unit.

The following compounds have reported results that may help.
N#Cc1c(-c2ccccc2)nc2c(c(-c3ccccc3)nn2-c2ccccc2)c1-c1ccc(O)cc1 ... 6.7
COc1cc(-c2c3c(cc4c2OCO4)[C@@H](Nc2ccc4c(c2)Cc2cc(N[C@@H]5c6cc7c(cc6C(c6cc(OC)c(O)c(OC)c6)[C@H]6C(=O)OC[C@H]56)OCO7)ccc2-4)[C@H]2COC(=O)[C@@H]2C3)cc(OC)c1O (some centres not stated) ... 88.9
O=C1c2ccccc2-c2c1c1ccccc1c(=O)n2CCNCCCNCCn1c2c(c3ccccc3c1=O)C(=O)c1ccccc1-2 ... 1.24
NC(=S)N=Nc1c(O)cc(Nc2ccc(Cl)cc2Cl)c2ccccc12 ... 38.6

# ---- query compound ----
**Q:** Kindly indicate its recorded TGI. Item: C=C1CC=CC(C)(C)C1C/C=C(\C)C(O)CBr (configuration not stated)
**A:** 54.1

----------
# System: BT-549 breast
# assay info: NCI tumour cell line growth inhibition, 48 h
measurement type: TGI

COC(=O)C1=C(C(=O)OC)C2(C)CCC(=O)C1O2 (stereo not drawn) ... > 10 µM

**Q:** Kindly indicate its recorded TGI. Item: CC/C=C\C/C=C\C/C=C\CCCCCCCC(=O)OC(COC(=O)CCCCCCCCCCCCCCCCC)COC1OC(CO)C(O)C(O)C1O (stereo not drawn)
**A:** > 25 µM

**Q:** Kindly indicate its recorded TGI. Item: `CS(=O)(=O)Nc1ccc(-c2ccc3c(NC(=O)C4CC4)n[nH]c3c2)cc1`
**A:** > 25 µM
